- system: T1, human RANKL protein (Sino Biological, 11682-HNCH) (human, UniProt O14788 136-317, limits assumed)
- T1 construct: Bought protein
- T1 sequence (looked up): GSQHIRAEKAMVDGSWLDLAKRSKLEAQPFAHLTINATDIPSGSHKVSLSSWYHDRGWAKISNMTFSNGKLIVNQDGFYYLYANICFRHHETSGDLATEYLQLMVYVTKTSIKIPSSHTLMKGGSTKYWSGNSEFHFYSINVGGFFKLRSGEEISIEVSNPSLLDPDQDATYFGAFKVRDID
- method.summary: SPR (Biacore), antibody captured on Protein A chip, RANKL in flow, 1:1 fit
- Protocol: Reaction signals were detected in real time by using Biacore, and binding and dissociation curves were obtained. After dissociation was complete in each cycle, the biochip was washed and regenerated with a glycine-hydrochloric acid regeneration solution (GE, BR-1003-54) having a pH of 1.5. Fitting was performed on the experimental data using BIAevaluation version 4.1 software with a 1:1 model, and affinity values were obtained.
Field: koff. Provide a value for each of the binders that follow.
Give bare numbers, in s⁻¹.

Hi! Can you tell me koff for each of these binders?
1. 3-37L (antibody, IgG4, V domains shown, Variable regions fused to human constant regions) VH: EVQLLESGGGLVQPGGSLRLSCAASGFTFSSYAMSWVRQAPGKGLEWVSGITGSGGSTYYADSVKGRFTISRDNSKNTLYLQMNSLRAEDTAVYYCAKDPGTTVIMSWFDPWGQGTLVTVSS VL: EIVLTQSPGTLSLSPGERATLSCRASQAIRGRKLAWYQQKPGQAPRLLIYDTSSRATGIPDRFSGSGSGTDFTLTISRLEPEDFAVFYCQQYGSSPRTFGQGTKVEIK
2. 5-51H (antibody, V domains shown, Variable regions fused to human constant regions) VH: EVQLLESGGGLVQPGGSLRLSCAASGFTFSSYAMSWVRQAPGKGLEWVSGITGSGGSTYYADSVKGRFTISRDNSKNTLYLQMNSLRAEDTAVYYCAKDPCFSYIMSWFDPWGQGTLVTVSS VL: EIVLTQSPGTLSLSPGERATLSCRASQSVRGRYLAWYQQKPGQAPRLLIYGASSRATGIPDRFSGSGSGTDFTLTISRLEPEDFAVFYCQQYGSSPRTFGQGTKVEIK
3. 5-16H (antibody, V domains shown, Variable regions fused to human constant regions) VH: EVQLLESGGGLVQPGGSLRLSCAASGFTFSSYAMSWVRQAPGKGLEWVSGITGSGGSTYYADSVKGRFTISRDNSKNTLYLQMNSLRAEDTAVYYCAKDPASIVIMSWFDPWGQGTLVTVSS VL: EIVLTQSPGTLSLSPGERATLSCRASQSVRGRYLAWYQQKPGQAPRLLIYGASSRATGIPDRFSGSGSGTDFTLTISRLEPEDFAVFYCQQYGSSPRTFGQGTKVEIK

0.000305
0.00069
0.00026
